Data credit: patent US5232917A

tested on: metrazol-induced seizures; assay: Time course of antimetrazol activity of prodrugs; format: in vivo, mice (CF1); conditions: Mus musculus; 60 mg/kg ip, 4 hr; read-out: Antimetrazol activity, % of animals protected, 4 hr
EXPERIMENTAL READOUT: responders at 60 mg/kg

Input: I am curious: what responders at 60 mg/kg value has been reported for `CC(=O)[C@H]1CC[C@H]2[C@@H]3CC[C@H]4C[C@H](OC(=O)C(C)C)CC[C@]4(C)[C@H]3CC[C@]12C` ?
Output: 29%

Input: Name the reported responders at 60 mg/kg value associated with the compound `CCCC(=O)O[C@@H]1CC[C@@]2(C)[C@@H](CC[C@@H]3[C@@H]2CC[C@]2(C)[C@@H](C(C)=O)CC[C@@H]32)C1`
Output: 13%

Input: May I ask what responders at 60 mg/kg has been recorded for `COc1ccc(C(=O)O[C@@H]2CC[C@@]3(C)[C@@H](CC[C@@H]4[C@@H]3CC[C@]3(C)[C@@H](C(C)=O)CC[C@@H]43)C2)cc1` ?
Output: 17%

Further cases:
Input: What value of measured responders at 60 mg/kg is listed for `CC(=O)[C@H]1CC[C@H]2[C@@H]3CC[C@H]4C[C@H](OC(=O)c5ccc(Cl)cc5)CC[C@]4(C)[C@H]3CC[C@]12C` ?
Output: < 16%

Input: Recorded responders at 60 mg/kg for `CC(=O)OCC(=O)[C@H]1CC[C@H]2[C@@H]3CC[C@H]4C[C@H](OC(=O)C(C)C)CC[C@]4(C)[C@H]3CC[C@]12C` , please?
Output: 13%

Input: Quick one: responders at 60 mg/kg of `CCC(=O)O[C@@H]1CC[C@@]2(C)[C@@H](CC[C@@H]3[C@@H]2CC[C@]2(C)[C@@H](C(C)=O)CC[C@@H]32)C1` ?
Output: 0%
